Where these numbers come from: patent US12258327B2

Target: EGFR wildtype (WT) (Homo sapiens, UniProt P00533)
Sequence (P00533 25-1210): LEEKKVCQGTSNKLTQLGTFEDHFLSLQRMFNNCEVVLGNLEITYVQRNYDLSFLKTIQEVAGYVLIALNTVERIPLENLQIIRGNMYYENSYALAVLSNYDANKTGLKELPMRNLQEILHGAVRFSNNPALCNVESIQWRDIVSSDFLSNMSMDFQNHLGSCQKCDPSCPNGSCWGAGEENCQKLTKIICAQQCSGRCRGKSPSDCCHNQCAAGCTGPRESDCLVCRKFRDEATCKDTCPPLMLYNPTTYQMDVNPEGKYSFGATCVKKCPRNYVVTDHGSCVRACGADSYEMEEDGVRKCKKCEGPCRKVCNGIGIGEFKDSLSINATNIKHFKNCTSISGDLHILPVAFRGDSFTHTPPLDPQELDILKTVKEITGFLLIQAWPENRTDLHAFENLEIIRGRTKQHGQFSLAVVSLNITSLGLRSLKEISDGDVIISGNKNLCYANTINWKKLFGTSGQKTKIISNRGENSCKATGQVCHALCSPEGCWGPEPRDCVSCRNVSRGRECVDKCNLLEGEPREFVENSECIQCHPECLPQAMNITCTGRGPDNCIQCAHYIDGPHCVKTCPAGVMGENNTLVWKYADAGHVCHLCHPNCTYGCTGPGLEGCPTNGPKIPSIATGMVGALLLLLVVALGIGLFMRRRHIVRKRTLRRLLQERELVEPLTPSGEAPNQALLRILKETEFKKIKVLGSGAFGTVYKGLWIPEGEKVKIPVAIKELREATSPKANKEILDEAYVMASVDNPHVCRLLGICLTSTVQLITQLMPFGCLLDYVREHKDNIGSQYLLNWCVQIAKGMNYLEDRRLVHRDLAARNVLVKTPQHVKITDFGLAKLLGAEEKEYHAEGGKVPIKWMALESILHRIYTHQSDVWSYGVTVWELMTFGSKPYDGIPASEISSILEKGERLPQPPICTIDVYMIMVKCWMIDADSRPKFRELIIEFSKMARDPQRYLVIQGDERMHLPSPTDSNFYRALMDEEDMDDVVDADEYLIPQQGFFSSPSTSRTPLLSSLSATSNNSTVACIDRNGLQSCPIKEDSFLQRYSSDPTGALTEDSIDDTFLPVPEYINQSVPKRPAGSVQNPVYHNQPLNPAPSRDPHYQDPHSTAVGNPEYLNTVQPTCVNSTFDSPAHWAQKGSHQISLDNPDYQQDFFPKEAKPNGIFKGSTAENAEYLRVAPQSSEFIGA
Experiment: Biochemical EGFR kinase assay (Lance Ultra TR-FRET), wildtype
Conditions: Km ATP; read-out: IC50 WT (nM) Km ATP
Experimental: Biochemical EGFR kinase assays were conducted using Lance Ultra time-resolved fluorescence resonance energy transfer (TR-FRET) technology from Perkin-Elmer. […] Each kinase reactions were incubated at room temperature for 1 hour and then stopped by the addition of 4 μL of stop solution (10 mM EDTA). […] After 60 minutes incubation at room temperature the LANCE signal was measured on an EnVision Multilabel Reader (Perkin-Elmer). […]
measure: IC50 (nM)

- compound: "O=S(=O)(C1CC1)n1cc(-c2nccc(Nc3cc(N[C@H]4CC[C@@H](NCCF)CC4)c(-c4ccn(CC(F)F)n4)cn3)n2)cn1 [Example 242]"
  measureUnit: "nM"
  IC50: 6

I: O=S(=O)(C1CC1)n1cc(-c2nccc(Nc3cc(NC[C@H]4CC[C@@H](O)C4)c(-c4ccn(C(F)F)n4)cn3)n2)cn1 [Example 119]
II: CC(C)Nc1cc(Nc2ccnc(-c3cnn(S(=O)(=O)C4CC4)c3)n2)ncc1-c1ccn(CCC(F)(F)F)n1 [Example 304]
Problem: When I and II are compared, which has the higher number for IC50? // respond with label for picked entry
Solution: II
(II: 355 nM, I: 6.1 nM)

* * *

target: EGFR L858R/C797S (Homo sapiens, UniProt P00533, C797S/L858R); test: Biochemical EGFR kinase assay (Lance Ultra TR-FRET), double mutant L858R/C797S; conditions: Km ATP; read-out: IC50 L858R/C797S (nM) Km ATP
Sequence (P00533 25-1210 C797S/L858R): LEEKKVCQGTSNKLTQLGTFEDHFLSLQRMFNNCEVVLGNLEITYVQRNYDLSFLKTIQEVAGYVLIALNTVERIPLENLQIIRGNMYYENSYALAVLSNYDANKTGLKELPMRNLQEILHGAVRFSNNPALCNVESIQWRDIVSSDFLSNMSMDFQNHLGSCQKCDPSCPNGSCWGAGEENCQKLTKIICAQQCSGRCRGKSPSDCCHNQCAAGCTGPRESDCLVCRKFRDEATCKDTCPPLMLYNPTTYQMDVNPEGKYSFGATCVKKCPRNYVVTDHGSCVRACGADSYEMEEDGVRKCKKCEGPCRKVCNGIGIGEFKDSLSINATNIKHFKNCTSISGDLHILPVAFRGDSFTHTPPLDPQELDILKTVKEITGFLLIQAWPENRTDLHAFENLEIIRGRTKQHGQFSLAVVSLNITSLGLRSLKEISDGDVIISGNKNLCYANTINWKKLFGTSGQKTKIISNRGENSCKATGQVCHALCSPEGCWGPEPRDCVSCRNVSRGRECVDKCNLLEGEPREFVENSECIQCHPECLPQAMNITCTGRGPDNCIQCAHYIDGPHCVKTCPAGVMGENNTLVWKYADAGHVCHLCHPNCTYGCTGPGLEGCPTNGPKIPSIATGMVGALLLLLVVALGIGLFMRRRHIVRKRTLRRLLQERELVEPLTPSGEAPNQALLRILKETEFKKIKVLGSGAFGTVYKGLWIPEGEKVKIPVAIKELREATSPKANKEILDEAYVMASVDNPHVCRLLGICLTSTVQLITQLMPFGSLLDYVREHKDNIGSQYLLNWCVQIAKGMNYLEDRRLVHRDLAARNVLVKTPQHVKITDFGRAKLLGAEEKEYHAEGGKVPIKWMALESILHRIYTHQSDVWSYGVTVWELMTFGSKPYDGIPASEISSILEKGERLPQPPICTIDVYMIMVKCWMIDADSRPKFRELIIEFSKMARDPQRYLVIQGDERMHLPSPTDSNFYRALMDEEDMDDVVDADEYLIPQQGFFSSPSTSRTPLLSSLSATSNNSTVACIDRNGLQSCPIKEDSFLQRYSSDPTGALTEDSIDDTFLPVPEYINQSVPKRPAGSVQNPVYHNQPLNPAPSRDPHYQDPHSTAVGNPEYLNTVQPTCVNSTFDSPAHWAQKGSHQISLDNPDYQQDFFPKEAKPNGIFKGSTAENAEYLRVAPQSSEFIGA
measure: IC50 (nM)

- compound: "COc1ncc(-c2nccc(Nc3cc(N[C@H]4CC[C@@](C)(O)CC4)c(-c4ccn(C(F)F)n4)cn3)n2)cc1F [Example 178]"
  testedSystem: "EGFR L858R/C797S (Homo sapiens, UniProt P00533, C797S/L858R)"
  measureUnit: "nM"
  observedValue: 3

a: CN1CC(Nc2cc(Nc3ccnc(-c4cnn(S(=O)(=O)C5CC5)c4)n3)ncc2-c2ccn(C(F)F)n2)CCC1=O (centres unmarked) [Example 37]
b: O=S(=O)(C1CC1)n1cc(-c2nccc(Nc3cc(N[C@H]4CC[C@@H](CN5CCC5)CC4)c(-c4ccn(C(F)F)n4)cn3)n2)cn1 [Example 208]
Problem: For the pair a and b , which member has the lower IC50 number? In your reply, give the label of the chosen option.
Solution: b

* * *

Molecular target: EGFR del19/T790M/C797S (Homo sapiens, UniProt P00533, C797S/DEL746-750/T790M)
Sequence (P00533 with tags, fused parts or gaps DEL746-750/T790M/C797S): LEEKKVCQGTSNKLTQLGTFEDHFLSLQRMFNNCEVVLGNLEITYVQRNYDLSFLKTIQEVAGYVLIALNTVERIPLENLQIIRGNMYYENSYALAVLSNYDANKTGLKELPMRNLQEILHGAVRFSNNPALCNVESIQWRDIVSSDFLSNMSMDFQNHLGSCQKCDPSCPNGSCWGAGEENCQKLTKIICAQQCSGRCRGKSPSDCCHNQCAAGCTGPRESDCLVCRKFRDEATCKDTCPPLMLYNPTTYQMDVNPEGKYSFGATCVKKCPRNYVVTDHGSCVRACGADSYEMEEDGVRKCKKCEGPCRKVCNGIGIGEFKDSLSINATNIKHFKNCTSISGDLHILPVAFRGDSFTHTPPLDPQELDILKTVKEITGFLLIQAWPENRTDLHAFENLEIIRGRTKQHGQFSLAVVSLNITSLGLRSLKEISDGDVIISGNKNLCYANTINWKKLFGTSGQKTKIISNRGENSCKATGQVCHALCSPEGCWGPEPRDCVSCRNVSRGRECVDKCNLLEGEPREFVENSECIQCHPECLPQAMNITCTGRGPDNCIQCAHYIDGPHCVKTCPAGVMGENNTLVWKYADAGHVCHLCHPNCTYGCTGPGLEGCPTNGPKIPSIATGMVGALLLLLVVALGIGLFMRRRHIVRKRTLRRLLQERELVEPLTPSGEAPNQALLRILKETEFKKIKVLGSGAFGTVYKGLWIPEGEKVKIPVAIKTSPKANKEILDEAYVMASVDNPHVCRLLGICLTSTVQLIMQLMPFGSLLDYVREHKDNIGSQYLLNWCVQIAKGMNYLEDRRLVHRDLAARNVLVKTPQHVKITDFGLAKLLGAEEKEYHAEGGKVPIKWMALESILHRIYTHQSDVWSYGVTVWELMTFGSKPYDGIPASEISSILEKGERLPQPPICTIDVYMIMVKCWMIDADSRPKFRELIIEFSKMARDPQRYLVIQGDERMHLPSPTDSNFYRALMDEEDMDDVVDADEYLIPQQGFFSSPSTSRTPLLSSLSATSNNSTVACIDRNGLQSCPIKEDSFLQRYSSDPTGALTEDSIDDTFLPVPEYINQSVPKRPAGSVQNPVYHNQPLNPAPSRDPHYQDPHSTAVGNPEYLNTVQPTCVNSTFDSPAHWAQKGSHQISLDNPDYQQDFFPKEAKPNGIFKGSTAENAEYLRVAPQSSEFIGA
Assay: Biochemical EGFR kinase assay (Lance Ultra TR-FRET), triple mutant del19/T790M/C797S
Conditions: Km ATP; read-out: IC50 del19/T790M/C797S (nM) Km ATP
Experimental: Biochemical EGFR kinase assays were conducted using Lance Ultra time-resolved fluorescence resonance energy transfer (TR-FRET) technology from Perkin-Elmer. […] Each kinase reactions were incubated at room temperature for 1 hour and then stopped by the addition of 4 μL of stop solution (10 mM EDTA). […] After 60 minutes incubation at room temperature the LANCE signal was measured on an EnVision Multilabel Reader (Perkin-Elmer). […]
measure: IC50 (nM)

// worked examples, IC50 included
- molecule: "O=S(=O)(C1CC1)n1cc(-c2nccc(Nc3cc(N[C@H]4CC[C@@H](NCCF)CC4)c(-c4cc5n(n4)CCCC5)cn3)n2)cn1"
  IC50 (nM): 0.2
- molecule: "C[C@]1(O)CC[C@@H](Nc2cc(Nc3ccnc(-c4cnn(CCF)c4)n3)ncc2-c2ccn(C(F)F)n2)CC1"
  IC50 (nM): 0.6
- molecule: "O=S(=O)(C1CC1)n1cc(-c2nccc(Nc3cc(NC4CC(O)C4)c(-c4ccn(C(F)F)n4)cn3)n2)cn1 (stereo not shown)"
  IC50 (nM): 0.5
- molecule: "O=S(=O)(C1CC1)n1cc(-c2nccc(Nc3cc(NC4CCC(F)CC4)c(-c4ccn(C(F)F)n4)cn3)n2)cn1 (stereo not shown)"
  IC50 (nM): 5.2
- molecule: "C[C@H](CCF)Nc1cc(Nc2ccnc(-c3cnn(S(=O)(=O)C4CC4)c3)n2)ncc1-c1ccn(C(F)F)n1"
  IC50 (nM): 2.1

a: Cc1nn(C)c(F)c1-c1nccc(Nc2cc(N[C@H]3CC[C@@](C)(O)CC3)c(-c3ccn(C(F)F)n3)cn2)n1
b: Cn1nc(-c2cnc(Nc3ccnc(-c4cnn(CC(F)(F)F)c4)n3)cc2N[C@H]2CC[C@@](C)(O)CC2)cc1C(F)(F)F
Problem: IC50 comparison. Which is larger, a or b ? Please identify the chosen entry by its label.
Solution: b
(b: 2.5 nM, a: 0.4 nM)

* * *

Each entry below lists one item and its recorded IC50 value.
target: EGFR wildtype (WT) (Homo sapiens, UniProt P00533); experiment: Biochemical EGFR kinase assay (Lance Ultra TR-FRET), wildtype; conditions: IC50 WT (nM) 100 μM ATP, 100 μM ATP

Below: 6 molecules and their reported IC50.
- molecule: "O=S(=O)(C1CC1)n1cc(-c2nccc(Nc3cc(N[C@H]4CC[C@@H](O)CC4)c(-c4ccco4)cn3)n2)cn1"
  measure: "IC50"
  observedValue: "> 10000 nM"
- molecule: "O=S(=O)(C1CC1)n1cc(-c2nccc(Nc3cc(N[C@H]4CC[C@](O)(CO)CC4)c(-c4csc(N5CCOCC5)n4)cn3)n2)cn1"
  measure: "IC50"
  observedValue: "> 10000 nM"
- molecule: "CN(CC(F)F)C(=O)[C@H]1CC[C@@H](Nc2cc(Nc3ccnc(-c4cnn(S(=O)(=O)C5CC5)c4)n3)ncc2-c2ccn(C(F)F)n2)CC1"
  measure: "IC50"
  observedValue: "> 10000 nM"
- molecule: "C[C@]1(O)CC[C@@H](Nc2cc(Nc3ccnc(-c4ccc(F)nc4)n3)ncc2-c2ccn(C(F)F)n2)CC1"
  measure: "IC50"
  observedValue: "> 10000 nM"
- molecule: "CN(C)C(=O)C[C@H]1CC[C@@H](Nc2cc(Nc3ccnc(-c4cnn(S(=O)(=O)C5CC5)c4)n3)ncc2-c2cc(C(F)(F)F)n(C)n2)CC1"
  measure: "IC50"
  observedValue: "2070 nM"
- molecule: "O=S(=O)(C1CC1)n1cc(-c2nccc(Nc3cc(NC4CCCC4O)c(-c4ccn(C(F)F)n4)cn3)n2)cn1 (stereo not shown)"
  measure: "IC50"
  observedValue: "> 10000 nM"

Problem: Request: IC50, test system EGFR wildtype (WT) (Homo sapiens, UniProt P00533), entry Cn1nc(-c2cnc(Nc3ccnc(-c4cnn(S(=O)(=O)C5CC5)c4)n3)cc2N[C@H]2CC[C@@](C)(O)CC2)cc1C(F)(F)F
Solution: > 10000 nM

Problem: Item: CC1(C)CC(Nc2cc(Nc3ccnc(-c4cnn(S(=O)(=O)C5CC5)c4)n3)ncc2-c2ccn(C(F)F)n2)CCC1O (stereo not shown) Test system: EGFR wildtype (WT) (Homo sapiens, UniProt P00533) Read-out: IC50 Value: ?
Solution: 9960 nM

* * *

target: EGFR L858R/C797S (Homo sapiens, UniProt P00533, C797S/L858R); experiment: Biochemical EGFR kinase assay (Lance Ultra TR-FRET), double mutant L858R/C797S; conditions: Km ATP; read-out: IC50 L858R/C797S (nM) Km ATP
measure: IC50 (nM)

Some entries whose results are on file:
- compound: "Cn1ccc(-c2cnc(Nc3ccnc(-c4cnn(S(=O)(=O)C5CC5)c4)n3)cc2N[C@H]2CC[C@](O)(C(F)F)CC2)n1"
  testedSystem: "EGFR L858R/C797S (Homo sapiens, UniProt P00533, C797S/L858R)"
  IC50, nM: 3.1
- compound: "O=S(=O)(C1CC1)n1cc(-c2nccc(Nc3cc(NC[C@H]4C[C@@H](O)C4)c(-c4ccn(C(F)F)n4)cn3)n2)cn1"
  testedSystem: "EGFR L858R/C797S (Homo sapiens, UniProt P00533, C797S/L858R)"
  IC50, nM: 6.5
- compound: "O=S(=O)(C1CC1)n1cc(-c2nccc(Nc3cc(NC4CCCC(NCCF)C4)c(-c4ccn(C(F)F)n4)cn3)n2)cn1 (stereo not shown)"
  testedSystem: "EGFR L858R/C797S (Homo sapiens, UniProt P00533, C797S/L858R)"
  IC50, nM: 5.8
- compound: "O=S(=O)(C1CC1)n1cc(-c2nccc(Nc3cc(NC4CCC(F)(CO)CC4)c(-c4ccn(C(F)F)n4)cn3)n2)cn1 (stereo not shown)"
  testedSystem: "EGFR L858R/C797S (Homo sapiens, UniProt P00533, C797S/L858R)"
  IC50, nM: 6.7
- compound: "CC(C)(O)[C@H]1CC[C@@H](Nc2cc(Nc3ccnc(-c4cnn(S(=O)(=O)C5CC5)c4)n3)ncc2-c2cc3n(n2)CCCC3)CC1"
  testedSystem: "EGFR L858R/C797S (Homo sapiens, UniProt P00533, C797S/L858R)"
  IC50, nM: 2.9

a: Cn1nc(-c2cnc(Nc3ccnc(-c4cnn(S(=O)(=O)C5CC5)c4)n3)cc2N[C@H]2CC[C@@H](F)CC2)cc1C(F)(F)F
b: CC(C)(O)[C@H]1CC[C@@H](Nc2cc(Nc3ccnc(-c4cnn(S(=O)(=O)C5CC5)c4)n3)ncc2-c2ccn(CCC(F)(F)F)n2)CC1
Problem: Pick the one with the larger IC50: a vs b When you have decided, please share the label of that item.
Solution: a
(a: 8 nM, b: 0.5 nM)

I: O=S(=O)(C1CC1)n1cc(-c2nccc(Nc3cc(NC4CC(O)C4)c(-c4ccn(C(F)F)n4)cn3)n2)cn1 (stereo not shown)
II: CN(C)C[C@H]1CC[C@H](CNc2cc(Nc3ccnc(-c4cnn(S(=O)(=O)C5CC5)c4)n3)ncc2-c2csc(C(F)(F)F)n2)CC1
III: CN(C)CC1(C)CCC(Nc2cc(Nc3ccnc(-c4cnn(S(=O)(=O)C5CC5)c4)n3)ncc2-c2ccn(CC(F)F)n2)CC1 (stereo not shown)
Problem: List these items ordered by IC50, big to small. In your reply, arrange the labels in the requested order.
Solution: III, I, II

I: CN(C)CC1(C)CCC(Nc2cc(Nc3ccnc(-c4cnn(S(=O)(=O)C5CC5)c4)n3)ncc2-c2ccn(CC(F)(F)F)n2)CC1 (stereo not shown)
II: O=S(=O)(C1CC1)n1cc(-c2nccc(Nc3cc(OC4CCC(O)CC4)c(-c4ccn(C(F)F)n4)cn3)n2)cn1 (stereo not shown)
Problem: Field: lower recorded IC50 (choose I or II ) Use the label to indicate which entry you chose.
Solution: II
